# assay target: A*6801 (Homo sapiens, UniProt P04439, A269V/D185E/E176V/E277Q/E87N/F33Y/G231S/I121M/I166T/I218V/L180W/L300P/L318F/N151K/P208A/P217A/Q86R/R169H/T345S)
# assay summary: biochemical
# Type: binding
pIC50: −log10 of the molar value. No end group written: not given here.
assay readout: pIC50

>>> numeric_result("SSCMGGMNR [Peptide 1556.59]")
6.96
>>> numeric_result("KTVRLIKFLY [Peptide 9017.0197]")
4.92
>>> numeric_result("MLIQPPKLR [Peptide 88.0340]")
7.60
>>> numeric_result("MLIEPPKLR [Peptide 88.0366]")
7.92
>>> numeric_result("MLVRFKCAK [Peptide 1587.30]")
6.06
>>> numeric_result("VTVQYDNDKK [Peptide 88.0216]")
5.94
>>> numeric_result("KISEYRHYCY [Peptide 78.0082]")
5.70
>>> numeric_result("AFADLTVVYR [Peptide 78.0058]")
7.41
>>> numeric_result("VTIYYGVPVWR [Peptide 1525.04]")
8.47
>>> numeric_result("HLFDYSWYK [Peptide 76.0165]")
8.68
>>> numeric_result("STAAALYWYR [Peptide 1587.32]")
8.39
>>> numeric_result("GSQPKTACNK [Peptide 9017.0202]")
4.80

---

# assay target: DRB1*1302 (Homo sapiens, UniProt P01903+P01911, A100E/A169T/K41T/L162R/M171V/P40S/Q125H/Q178H/Q39Y/Q99D/R42S/S66N/T262R/V115G/W38E/Y61H)
# Sequence (P01903 26-254 limits assumed, other chains not shown): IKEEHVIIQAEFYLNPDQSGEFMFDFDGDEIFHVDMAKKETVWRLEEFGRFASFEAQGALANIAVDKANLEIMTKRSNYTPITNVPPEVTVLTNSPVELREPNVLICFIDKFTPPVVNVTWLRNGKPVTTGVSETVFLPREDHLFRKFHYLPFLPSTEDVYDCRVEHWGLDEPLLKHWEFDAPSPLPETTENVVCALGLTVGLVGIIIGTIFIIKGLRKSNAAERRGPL
# assay summary: biochemical
# Assay type: binding
No end group written: not given here.
Property: IC50; scope: individual sequences
assay readout: IC50 (nM)

>>> numeric_result("IIHLKGDKNSLKCLR [Peptide 90.0218]")
1330
>>> numeric_result("AKLMSNLLSIPETCM [Peptide 89.0066]")
12
>>> numeric_result("LVQLKCPPLLLTSNT [Peptide 89.0077]")
2000
>>> numeric_result("MLAVFKDTYGLSFTD [Peptide 90.0050]")
1240
>>> numeric_result("KNCILIHGAPNTGKS [Peptide 89.0055]")
8910
>>> numeric_result("KHIRLLECVLMYKARE [Peptide 1601.44]")
418
>>> numeric_result("TTIYNNEEWTLRDTC [Peptide 90.0232]")
1010
>>> numeric_result("PEWIEQQTVLQHSFD [Peptide 89.0105]")
1310
>>> numeric_result("MNYVVWDSIYYITET [Peptide 90.0214]")
17
>>> numeric_result("KNRLTVAKLMSNLLS [Peptide 89.0064]")
14
>>> numeric_result("EVHVGGQVIVCPASV [Peptide 90.0015]")
152
>>> numeric_result("KWGVLILALLRYKCG [Peptide 89.0027]")
571
>>> numeric_result("NTTPIIHLKGDKNSL [Peptide 1601.37]")
5440
>>> numeric_result("LKVLIKQHSIYTHLQ [Peptide 89.0142]")
448
>>> numeric_result("ELQMALETLSKSQYS [Peptide 89.0183]")
4300
>>> numeric_result("IIHLKGDANILKCLR [Peptide 90.0197]")
66
>>> numeric_result("DPRWPYLHSRLVVFH [Peptide 89.0113]")
13
>>> numeric_result("RLNVCQDKILTHYEN [Peptide 90.0160]")
96
>>> numeric_result("CSAIEVQIALESLST [Peptide 90.0018]")
617
